- test_protocol: yeast display, Sf9 membrane polyspecificity reagent, FACS + sequencing; frameworks hold sequencing errors
quantity_measured: polyreactivity (PSR sort gate)

sequence_code: QVQLVESGGGLVQAGGSLRLSCAASGRIFTRYAMGWYRQAPGKERELVAAINYRGSSTYYADSVKGRFTISRDNAKNTVYLQMNSLKPEDTAVYYCNTYGQTDTYWRYYYWGQGTQVTVSS
polyreactivity (PSR sort gate): high polyreactivity

sequence_code: QVQLVESGGGLVQAGGSLRLSCAASGFTFGYYAMGWYRQAPGKERELVAAISWSGSSTYYSDSVKGRFTISRDNAKNTVYLQMNSLKPEATAVYYCAAELGDAYYYWGQGTQVTVSS
polyreactivity (PSR sort gate): high polyreactivity

sequence_code: QVQLVESGGGLVQAGGSLRLSCAASGNIFGYYVMGWYRQAPGKERELVAGISSGDSTDYADSVKGRFTISRDNAKNTVYLQMNSLKPEDTAVYYCNADWNPTERWFYWYTPLGYDYWGQGTQVTVSS
polyreactivity (PSR sort gate): low polyreactivity

sequence_code: QVQIVESGGLLVQAGGSLRLSCAASGFIFNPNAMGWYRQAPGKERELVAAIRWSGGSTYYADSVQGRFTISRDNEKNTVYLQMNSLKPDDTAVYYCAANPRTTRYGRGYWGQGTQVSVSS
polyreactivity (PSR sort gate): high polyreactivity

Please turn your attention to the following entry.
Specify reported polyreactivity (PSR sort gate) for the sequence shown: QVQLVESGGGLVQAGGSLRLSCAASGSTYYYNAMGWYRQAPGKERELVAAIRTSGGRTYYADSVKGRFTISRDNAKNTVFLQMMSLKPEDTAVYFCADDGTDVHYTYDYWGQGTLVTVSS
low polyreactivity

* * *

- test_protocol: yeast display, Sf9 membrane polyspecificity reagent, FACS + sequencing; frameworks hold sequencing errors
quantity_measured: polyreactivity (PSR sort gate)

Some entries whose results are on file:
sequence_code: QVQLVESGGGLVQAGGSLRLSCAASGRIFLYYAMGWYRQAPGKERELVAAISSGGSTYYADSVKGRFTISRDNAKNTVYLQMNSLKPEDTAVYYCATPSGRWGHYGYWGQGTQVTVSS
quantity_measured: polyreactivity (PSR sort gate)
readout_value: low polyreactivity
--
sequence_code: QVQLVESGGGLVQAGGSLRLSCAASGFIFYFYAMGWYRQAPGKERELVAAISWSGGSTYYADSVKGRFTISRDNAKNTDYLQMNSLKPEDTAVYYCAAQSWSGDSTFWRYDYWGQGTQVTVSS
quantity_measured: polyreactivity (PSR sort gate)
readout_value: low polyreactivity
--
sequence_code: QVQLHERGDGLVQAVGSLRLSCAASGYISGYYYMGWYRQATGKERELVAGIDALGSSTNYADCVKGRFTISRDNAKNTVYLQMNSLKPEDTAVYYCAARPDGDRLFSYWGQGTQVTVSS
quantity_measured: polyreactivity (PSR sort gate)
readout_value: low polyreactivity
--
sequence_code: QVQLVESGGGLVQAGGSLRLSCAASGFTVAYYAMGWYRQAPGKERELVAAITGSGGRTYYADSVKGRFTISRDNAKNTVYLQMTSLKPEDTAVYYCAALTGPYKAQVHGGHTPLDYWGHGTQVTVSS
quantity_measured: polyreactivity (PSR sort gate)
readout_value: low polyreactivity
--
sequence_code: QVQLVESGGGLVQAGGSLRLSCAASGRTFPIYAMGWYRQAPGKERELVAAITYSGGSTYYADSVKGRFTISRDNAKNTVYLQMNSLKPEDTAVSYCAVDGTKPYWHQRYDYWGQGTLVTVSS
quantity_measured: polyreactivity (PSR sort gate)
readout_value: low polyreactivity
--
sequence_code: QVQLVESGGGLDQAEGSLRLSCAASGSKINHYARGWYRQAPRKERELVAAITKSGGSTYADSVKGRFTISRDNAKNTVYLKMNSRKPEDTAVYYCAAGRRIYGTKGRGDYWGQGTQVTVSS
quantity_measured: polyreactivity (PSR sort gate)
readout_value: low polyreactivity

Please turn your attention to the following entry.
Specify reported polyreactivity (PSR sort gate) for the sequence shown: QVQLVESGEGLVQAGGSLRLSCAASGITFDAYTMGWYRQAPGKERELVAAITWSSTSTYYADSVKGRFTISRDNAKNTVYLQMNSLKPEDTAVFYCAAYRVGDYYWGQGTKVTVSS
low polyreactivity

* * *

- test_protocol: yeast display, Sf9 membrane polyspecificity reagent, FACS + sequencing; frameworks hold sequencing errors
quantity_measured: polyreactivity (PSR sort gate)

sequence_code: QDQLVESGVGLVQAGGSLRLSCAASGSTFYYYAMGWYRQAPGKERELVAAITSDGSTNYADSVKGRFTISRDNAKNTVYLQMNSLKTEDTAVYYCAKTYYWGYDWGQGTQVTVSS
polyreactivity (PSR sort gate): low polyreactivity

sequence_code: QVQLVESGGGLVQAGGSLRLSCAASGRTFQWYAMGWYRQAPGKERELVAAISYSDASTYYADSVKGRFTISRDNAKNTVYLQMNSLKPEDTAVYYCAAVYYVVYGPWGGSYYWGQGTQVTVSS
polyreactivity (PSR sort gate): low polyreactivity

sequence_code: QVQIVESGGGLVQAGGRLRLSCAASGSIFSIYDMGWYRQAPGKERELVAAITWGGASTYYADSVKGRFTISRDNAKNTVYLQMNSLKPEDTAVYYCAADSLTWNGTYYYWGQGTQVTVSS
polyreactivity (PSR sort gate): high polyreactivity

sequence_code: QVQLVESGGGLVQAGGSLRLSCAASGITFQTYTMGWYRQAPGKERELVATISWNGGSTYYADSVKGRFTISRDNAKNTVYLQMNSLKPEDNAVYDCATGKWGYFRYNYWGQGTQVTVSS
polyreactivity (PSR sort gate): high polyreactivity

Specify reported polyreactivity (PSR sort gate) for the sequence shown: QVQLVESGGGLVQAGGSLRLSCAASGSTFGFNAMGWYRQAPGKERELVAAIDGSAGSTYYADSVKGRFTISRDNAKNTVYLQMNSLKPEDTAVYYCAADIYWFIEYEYWGQGTQVTVSS
low polyreactivity

* * *

- test_protocol: yeast display, Sf9 membrane polyspecificity reagent, FACS + sequencing; frameworks hold sequencing errors
quantity_measured: polyreactivity (PSR sort gate)

Some entries whose results are on file:
sequence_code: QVQLVESAGGLVQAGGSLRLSCAATGFIFWGNAMGWDRQAPGKERELVAGIRSLGGTTSYADSVKGRFTISRDNAKNTVYLQMNSLKPEDTAVYYCAAKYSYYTYAGDGGLFSWSYGYWGQGTQVTVSS
readout_value: low polyreactivity
--
sequence_code: QVQLVESGGGLVQAGGSLRLSCAASGYTFYGYAMGWYRQAPGKERELVATISTGGTTTYADSVKGRFTISRDNAKNTVYLQMNSLKPEDTAVYYCAADANQVRDVHEFYPYLHDYWGQGTQVTVSS
readout_value: low polyreactivity
--
sequence_code: QVQLVESGGGLVQARGSLRLSCAGSGSTLPSYAMGWYRQAPGKERELVAAISSSGGRTYYADSVKGRFTISRDNAKNTVYLLMNSLKPEDTAVYYCAALSVANYHGTDSGYWGQGTQVTVSS
readout_value: high polyreactivity
--
sequence_code: QVQLVESGGGLVLAGGSLRLRCAASGSNFYVNAMGWYRQAPWKEMELVAAISRRGGSTYYADSVKGRFTISRDNAKNTVYLQMNSLKPEDTAVYYCNKAMRGQAPSGPEYDYWGQGTQVTVSS
readout_value: high polyreactivity

Please turn your attention to the following entry.
Specify reported polyreactivity (PSR sort gate) for the sequence shown: QVQLVESGGGLVQAGGSLRLSCAASGRTFYTYAMGWYRQAPGKERELVAAISSGGSTYYADSVKGRFTISRDNAKNTVYLQMNSLKPEDTAVYYCAARYSKRVWYGYWGQGTQVTVSS
high polyreactivity

* * *

- test_protocol: yeast display, Sf9 membrane polyspecificity reagent, FACS + sequencing; frameworks hold sequencing errors
quantity_measured: polyreactivity (PSR sort gate)

Some entries whose results are on file:
sequence_code: QVQLVESGGGLVQAGGSLRLSCAASGRIFSKYAMGWYRQAPGKERELVAAITYSGGSTYYADSVKGRFTISRDNAKNTVYLQMNSLKPEDTAVYYCAAVHGTSYSKWFGYWGQGTQVTVSS
polyreactivity (PSR sort gate): low polyreactivity
//
sequence_code: QVQLVESGGGLVQAGGSLRLSCAASGRIFRYNTMGWYRQAPGKERELVAAINSSGGRTYYADSVKGRFTISRDNAKNTVYLQMNSLKPEDTSVYYCAAVIYVLSGPGYDYWGQGTQVTVSS
polyreactivity (PSR sort gate): high polyreactivity
//
sequence_code: QVQLVESGGGLVQAGGSLRLSCAASGSIFYYYAAMGWYRQAPGKERELVAAIDSSDGTTYYADSVKGRFTISRDNAKNTVYLQMNSLKPEDTAVYYCAAETVQEFEYWGQGTQVTVSS
polyreactivity (PSR sort gate): high polyreactivity
//
sequence_code: QVQLVESGGGLDQAGGSLRLSCAASGRILRGYVMGWYRQAPGKERELVATITGRGGSTYYADSVKGRFTISRDNAKNSVYLQMNSLKPEDPAVYYCNKDGYPYFGRSESWGQGPQVTVSS
polyreactivity (PSR sort gate): low polyreactivity
//
sequence_code: QVQLVESGGGLVQAGGSLRLSCAASGIIFRVYAMGWYRQAPGKERELVATITWSGGSTFYADSVKGRFTISRDNAKNTVYLQMNSLKPEDTAVYYCAKRGYVRSGLGRPYADDYWGQGTQVTVSS
polyreactivity (PSR sort gate): low polyreactivity

Specify reported polyreactivity (PSR sort gate) for the sequence shown: QVQLVESGGGLVQAGGGLRLSCAACGSIFVYYVMGWYRQAPGKERELVAAINSDGDGTYYADSVKGRFTISRDNAKNTVYLQMNSLKPEDTAVYYCNALNPKSYDYWGQGTQVTVSS
low polyreactivity

Specify reported polyreactivity (PSR sort gate) for the sequence shown: QVQLVESGGGLVQAGGSLRLSCAATGSTFASYAMGWYIQAPGKERELVAAITNGGSTNYADSVKGRFTISRDNAKNNVYLQMNSLNPEDTAVYYCAAYDGFPRRYDYWGQGTQVTVSS
low polyreactivity

Specify reported polyreactivity (PSR sort gate) for the sequence shown: QGQLVESWGGLVQAGGSHRLSCAASGRIFVYYAMGWYRQAPGKERELVAGMTGGGNTYYAYSVKVLFTISRDNAKNTGYLQKNSLKPEDTAVYYCAADPIRYRSRHKYGYWGQGTQVTVSS
low polyreactivity

Specify reported polyreactivity (PSR sort gate) for the sequence shown: QVQLVESGGGLVQAGGSLRLSCAASGSTFPGYAMGWYRQAPGKERELVAAISKRGGSTRYADSVKGRFTISRDNAKNTVYLQMNSLKPEDTAVYYCNNRSQISHYRRHDYWGQGTQVTVSS
high polyreactivity

Specify reported polyreactivity (PSR sort gate) for the sequence shown: QVQLVESGGGLVQAGGSLRLSCAASGSTFQLYDMGWYRQEPGKERELVAGISRDGSTYYADSVKGRFTISRDNAKNTVYLLMNSLKPEDTAVYYCAAKFYGNKRDLYYWGQGTQVTVSS
low polyreactivity

Specify reported polyreactivity (PSR sort gate) for the sequence shown: QVQLVESGGGLVQAGGSLRLSCAASGFIFPAYAMGWYRPAPGKERELVAAISKSGGRTYYADSVKGRFTISRDNAKNTVYIQMKSLKPEYTAVYYCDARMYNYDTSSSFDYWGQGTQVTVSS
high polyreactivity
